method-notes: Plasma PF-06873600 pharmacokinetics (LC/MS-MS, noncompartmental analysis)
Type: in vivo, human
run-conditions: Cycle 1 Day 1; Part 1B 25 mg BID +Let IR
reported-endpoint: Cmax, geometric mean (%CV)
Answer with the number, then the unit.

Requested read-out: Cmax, geometric mean (%CV). Entry: C[C@@]1(O)CCC[C@H]1n1c(=O)c(C(F)F)cc2cnc(NC3CCN(S(C)(=O)=O)CC3)nc21
228 ng/mL

----------
method-notes: Plasma PF-06873600 pharmacokinetics (LC/MS-MS, noncompartmental analysis)
Format: in vivo, human
run-conditions: Cycle 1 Day 1; Part 1A 10 mg BID IR
reported-endpoint: Cmax, geometric mean (%CV) (ng/mL)
Numbers only, in ng/mL.

Requested read-out: Cmax, geometric mean (%CV). Entry: C[C@@]1(O)CCC[C@H]1n1c(=O)c(C(F)F)cc2cnc(NC3CCN(S(C)(=O)=O)CC3)nc21
164

----------
method-notes: Plasma PF-06873600 pharmacokinetics (LC/MS-MS, noncompartmental analysis)
Assay type: in vivo, human
run-conditions: Cycle 1 Day 1; Part 1A 35 mg BID Intm 5/2 IR
reported-endpoint: Cmax, geometric mean (%CV)
Answer with the number, then the unit.

Requested read-out: Cmax, geometric mean (%CV). Entry: C[C@@]1(O)CCC[C@H]1n1c(=O)c(C(F)F)cc2cnc(NC3CCN(S(C)(=O)=O)CC3)nc21
276 ng/mL

----------
method-notes: Plasma PF-06873600 pharmacokinetics (LC/MS-MS, noncompartmental analysis)
Format: in vivo, human
run-conditions: Cycle 1 Day 1; Part 1A 25 mg BID IR
Method: Plasma samples were analyzed for PF-06873600 concentrations at Q2 Solutions using a validated analytic assay in compliance with Pfizer standard operating procedures. PF-06873600 samples were assayed by a validated LC/MS-MS using positive ionization mode. PK parameters were calculated using noncompartmental analysis of plasma concentration–time data.
reported-endpoint: Cmax, geometric mean (%CV) (ng/mL)
One number for each entry, in ng/mL.

Requested read-out: Cmax, geometric mean (%CV). Entry: C[C@@]1(O)CCC[C@H]1n1c(=O)c(C(F)F)cc2cnc(NC3CCN(S(C)(=O)=O)CC3)nc21 [PF-06873600]
244

----------
method-notes: Plasma PF-06873600 pharmacokinetics (LC/MS-MS, noncompartmental analysis)
Format: in vivo, human
run-conditions: Cycle 1 Day 1; Part 1C MR 20 mg lead-in IR 25 mg BID
reported-endpoint: Cmax, geometric mean (%CV) (µg/mL)
One number for each entry, in µg/mL.

Requested read-out: Cmax, geometric mean (%CV). Entry: C[C@@]1(O)CCC[C@H]1n1c(=O)c(C(F)F)cc2cnc(NC3CCN(S(C)(=O)=O)CC3)nc21 [PF-06873600]
0.122

----------
method-notes: Plasma PF-06873600 pharmacokinetics (LC/MS-MS, noncompartmental analysis)
Format: in vivo, human
run-conditions: Cycle 1 Day 1; Part 1C MR 30 mg BID long duration
reported-endpoint: Cmax, geometric mean (%CV) (ng/mL)
Give bare numbers, in ng/mL.

Requested read-out: Cmax, geometric mean (%CV). Entry: C[C@@]1(O)CCC[C@H]1n1c(=O)c(C(F)F)cc2cnc(NC3CCN(S(C)(=O)=O)CC3)nc21 [PF-06873600]
43.5

----------
method-notes: Plasma PF-06873600 pharmacokinetics (LC/MS-MS, noncompartmental analysis)
Type: in vivo, human
run-conditions: Cycle 1 Day 1; Part 1B 25 mg BID +Ful IR
reported-endpoint: Cmax, geometric mean (%CV) (ng/mL)
One number for each entry, in ng/mL.

Requested read-out: Cmax, geometric mean (%CV). Entry: C[C@@]1(O)CCC[C@H]1n1c(=O)c(C(F)F)cc2cnc(NC3CCN(S(C)(=O)=O)CC3)nc21
225
